B1: TLE6 (parent)
chain: FWHDTLTEQLWRIFAGVHDEKAKP

Variants of: B1
assay_summary: protein stability index of a GFP-peptide fusion (GPS, HEK-293T) (PSI 1-6); higher = more stable;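 further: lentivirally expressed fusions sorted by FACS into six bins by GFP to DsRed ratio, PSI derived from sequencing read proportions per bin multiplied by bin number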
condition_label: c terminus: a fixed tail appended
Binary classification by protein stability index, with 2 as an inclusive lower bound for yes; all other cases are no.

D19N yes

// query Is protein stability index at least 2? Consider W2H
// result yes

// query Reported protein stability index at or above 2? D4V
// result yes

// query Kindly determine if protein stability index recorded for H3Q is above or exactly 2.
// result no

// query Does L6S have a reported protein stability index of at least 2?
// result yes

// query Please indicate if the recorded protein stability index for T5Y meets or exceeds 2.
// result yes
